Measured cytotoxicity at 10 µM accompanies every entry in the list below.
- TEST PROTOCOL: Toxicity liver stage against HepG2, at 10uM
- Type: cell-based
- Design: test concentration 10 uM, cell line HepG2-A16-CD81EGFP
- RECORDED CONDITIONS: human, HepG2-A16-CD81EGFP cells; read-out: INHIBITION
PROPERTY MEASURED: cytotoxicity at 10 µM (%)

COMPOUND: O=C1CCCC2=Nc3nonc3NC(c3ccc(F)cc3F)C12 (configuration not stated)
VALUE OBSERVED: 2.43
//
COMPOUND: Cc1noc(CNc2cc3c(cc2Cl)OCCCO3)n1
VALUE OBSERVED: -1.49
//
COMPOUND: CN(C)C[C@H]1C[C@@H]2CN(Cc3ccoc3)C[C@@H]2O1
VALUE OBSERVED: 4.85
//
COMPOUND: O=C(CCc1nc(Cl)n[nH]1)NC1CCCN(CC2CCCCC2)C1 (configuration not stated)
VALUE OBSERVED: -11.4
//
COMPOUND: Cc1ccc2oc(CNC(C)c3nnc4n3CCCC4)cc2c1 (configuration not stated)
VALUE OBSERVED: -17.9
//
COMPOUND: Cc1cccc(-c2c[nH]c(C3CCCN3)n2)c1 (configuration not stated)
VALUE OBSERVED: -11.4
//
COMPOUND: COc1nn(C)cc1C(=O)NCC(OC)c1ccccc1C (configuration not stated)
VALUE OBSERVED: -8.32
//
COMPOUND: CN(C)CC(=O)N1CC(c2nn(C)c3nccnc23)C1
VALUE OBSERVED: -6.26
//
COMPOUND: COc1ccc(OC)c(NC(=O)c2c(C)cn(C)c2CC(=O)O)c1
VALUE OBSERVED: -1.52
//
COMPOUND: CC(C)c1cc(N[C@@H](CO)C(N)=O)n2nccc2n1
VALUE OBSERVED: -1.28
//
COMPOUND: O=C(c1ccccc1)N1CCC[C@]2(C[C@@H](OCc3ccncc3)CO2)C1
VALUE OBSERVED: 5.25
//
COMPOUND: CCCn1nc(C)c(C(=O)N(C)[C@@H]2CC[C@@H](OC)[C@@H]2O)c1C
VALUE OBSERVED: 4.36

###

- TEST PROTOCOL: Toxicity liver stage against HepG2, at 10uM
- Assay type: cell-based
- Parameters: test concentration 10 uM, cell line HepG2-A16-CD81EGFP
- RECORDED CONDITIONS: human, HepG2-A16-CD81EGFP cells; read-out: INHIBITION
Measured cytotoxicity at 10 µM accompanies every entry in the list below.

MOLECULE: CCOc1ccccc1-n1c(C2CCC2)n[nH]c1=O
cytotoxicity at 10 µM: 4.18%
--
MOLECULE: CCc1nc(CC(=O)N2CCn3c(CC)nnc3C2)cs1
cytotoxicity at 10 µM: -11.4%
--
MOLECULE: Cc1ccc(N(C)C2CCN(C(=O)c3ccsc3)CC2)nn1
cytotoxicity at 10 µM: -12.1%
--
MOLECULE: CC(C)N(C)Cc1nnc2n1CCCN(S(=O)(=O)C1CC1)C2
cytotoxicity at 10 µM: -0.48%
--
MOLECULE: Cn1cc(CN2CCC3(CC2)CC(c2ccncc2)C(=O)N3)cn1 (configuration not stated)
cytotoxicity at 10 µM: 1.75%
--
MOLECULE: O=C(O)[C@@H]1CCN(C(=O)Cc2ccccn2)[C@@H]1c1ccc(F)cc1
cytotoxicity at 10 µM: 4.22%
--
MOLECULE: Fc1ccc2c(c1)C1(CCNCC1)CC2OCC1CC1 (configuration not stated)
cytotoxicity at 10 µM: 4.92%
--
MOLECULE: O=C(CC(F)(F)F)N1CCCC(c2nccn2Cc2ccncc2)C1 (configuration not stated)
cytotoxicity at 10 µM: 3.22%
--
MOLECULE: CCn1cc(S(=O)(=O)N2CCN(C(=O)c3cc(Br)cs3)CC2)c(C)n1
cytotoxicity at 10 µM: 2.73%
--
MOLECULE: O=C(NCc1cccc(F)c1)NC1CCCN(c2ncccn2)C1 (configuration not stated)
cytotoxicity at 10 µM: -0.7%
--
MOLECULE: O=C(NCc1nnc2n1CCC2)c1cn(-c2ccccc2)nn1
cytotoxicity at 10 µM: -2.4%
--
MOLECULE: N#Cc1cccc(CNC(=O)NC2CCN(CC(F)F)CC2)c1
cytotoxicity at 10 µM: 4.16%
--
MOLECULE: c1cc(NCc2ccsc2)cc(-c2nnc[nH]2)c1
cytotoxicity at 10 µM: -54.5%
--
MOLECULE: CNC(=O)C1CCN(CC(=O)Nc2cc(C(C)C)no2)CC1
cytotoxicity at 10 µM: -8.01%
--
MOLECULE: COCCc1noc(CN2CCCc3cccc(OC)c32)n1
cytotoxicity at 10 µM: 5.52%
--
MOLECULE: Cc1ccc(N2CCC(CCN3CCCC3=O)CC2)nn1
cytotoxicity at 10 µM: 6.35%
--
MOLECULE: COCc1noc(Cn2c(C)cc(C(F)(F)F)cc2=O)n1
cytotoxicity at 10 µM: 2.65%
--
MOLECULE: Cc1nc(C(=O)N2CCCN(Cc3cnn(C)c3)CC2)ccc1C#N
cytotoxicity at 10 µM: -0.514%
--
MOLECULE: CS(=O)(=O)N1C[C@H](C(=O)Nc2cccnc2)[C@@H]2CCO[C@@H]2C1
cytotoxicity at 10 µM: -104%
--
MOLECULE: CSCc1nc(CNC(=O)C2CCCN(CC(N)=O)C2)cs1 (configuration not stated)
cytotoxicity at 10 µM: -7.82%
--
MOLECULE: O=C(c1cccc2cccnc12)N1CC[C@@]2(CCCO2)[C@@H](O)C1
cytotoxicity at 10 µM: -23.8%
--
MOLECULE: CC(C)c1cc(C(=O)NCCn2nnc3ccccc32)no1
cytotoxicity at 10 µM: -1.95%
--
MOLECULE: CN1CCC(Oc2ccc(-n3ccnc3-c3ccncc3)cc2)CC1
cytotoxicity at 10 µM: -3.05%
--
MOLECULE: N#Cc1ccccc1OCCN1CCCC(c2noc(C3CC3)n2)C1 (configuration not stated)
cytotoxicity at 10 µM: 5.87%
--
MOLECULE: COc1ccc(CN2CCCCC2Cn2nc(C)nc2C)cc1F (configuration not stated)
cytotoxicity at 10 µM: -15%
--
MOLECULE: Cc1noc(C)c1CN1CCO[C@H]2CN(Cc3cnn(C)c3)C[C@H]21
cytotoxicity at 10 µM: -0.292%
--
MOLECULE: O=C(Nc1cnccn1)[C@H]1CC[C@@H]2[C@@H](CCN2Cc2ccccn2)O1
cytotoxicity at 10 µM: -139%
--
MOLECULE: CC(C)N1CCOCC2(CN(Cc3cccs3)CCO2)C1 (configuration not stated)
cytotoxicity at 10 µM: 3.71%
--
MOLECULE: CC(=O)Nc1nc(C(=O)N2CCCC(c3cc(C)[nH]n3)C2)cs1 (configuration not stated)
cytotoxicity at 10 µM: -8.85%
--
MOLECULE: CCCn1ncc(C(=O)N(CCOC)Cc2c(C)nn(CC)c2C)c1C
cytotoxicity at 10 µM: -4.97%
--
MOLECULE: Cc1cc(C)n(CC2CCCN2CCc2ccncc2)n1 (configuration not stated)
cytotoxicity at 10 µM: -15.5%
--
MOLECULE: CCn1c(CN2CCCN(C(=O)OC)CC2)nc2c(F)cccc21
cytotoxicity at 10 µM: -8.6%
--
MOLECULE: CCn1nc(C)c(C(=O)N2C[C@@H](CN(C)C)[C@@H](CO)C2)c1C
cytotoxicity at 10 µM: 0.44%
--
MOLECULE: CCCNC(=O)N1CCc2ccc(S(=O)(=O)N3CCCC3)cc2C1
cytotoxicity at 10 µM: -12.3%
--
MOLECULE: COCCc1noc(CN2CCOC(Cn3nc(C)cc3C)C2)n1 (configuration not stated)
cytotoxicity at 10 µM: -6.66%
--
MOLECULE: Cc1nn(C)c(N2CCOCC2)c1CNC(c1cccs1)C(C)C (configuration not stated)
cytotoxicity at 10 µM: -2.53%
--
MOLECULE: COCc1nc(C2CCN(Cc3nccn3C)CC2)no1
cytotoxicity at 10 µM: -14.2%
--
MOLECULE: Cc1ccc(CN2CCC(O)(Cn3nc(-c4cccs4)oc3=O)CC2)o1
cytotoxicity at 10 µM: 8.52%
--
MOLECULE: COc1ccnc(N(C)Cc2csc(C)n2)n1
cytotoxicity at 10 µM: -2.62%
--
MOLECULE: Cc1nccn1CCN(C)C(=O)c1cn(-c2ccccc2)nn1
cytotoxicity at 10 µM: -0.651%
--
MOLECULE: Cn1cc(CN2CCCC(CCCc3ccccn3)(C(N)=O)C2)cn1 (configuration not stated)
cytotoxicity at 10 µM: -24.5%
--
MOLECULE: CC(C)COCC1CN(Cc2ccsc2)Cc2ncn(C)c21 (configuration not stated)
cytotoxicity at 10 µM: 6.61%
--
MOLECULE: O=C(Nc1ccnc(OC2CCOC2)c1)c1cccs1 (configuration not stated)
cytotoxicity at 10 µM: 5.42%
--
MOLECULE: O=C(CN1CCN(c2ncccn2)[C@@H]2CS(=O)(=O)C[C@@H]21)N1CCCCC1
cytotoxicity at 10 µM: -6.82%
--
MOLECULE: CCCN1CCC2(Cc3ccccc3NC2=O)C1 (configuration not stated)
cytotoxicity at 10 µM: 14.5%
--
MOLECULE: O=C(NC1CC1)c1cc2c(s1)CCN2C(=O)C1CC1
cytotoxicity at 10 µM: 6.17%
--
MOLECULE: CN1CCN(Cc2cnc(S(=O)(=O)CC3CC3)n2CC2CCCO2)CC1 (configuration not stated)
cytotoxicity at 10 µM: -2.87%
